FYI, the data here is from patent US11649218B2.

Efficacy listing for selected compounds.
Tested on: Leukemia K562 cell
assay_details: Leukemia K562 cell proliferation/viability assay (CellTiterGlo, 48 hours)
Type: cell-based
Set-up: unit not given here
setup_conditions: K562 cells
From the text: C-Abl is encoded by the ABL1 gene (NCBI Gene ID NO. 25). […] Assays for determining if a small molecule inhibits c-Abl activity are known. Non-limiting examples include cell proliferation assays using cancer cells that are BCR-Abl positive and depend on BCR-Abl for growth, such as the leukemia cell line K562. […]

compound	Efficacy
CN1C(=O)c2ccc(-c3cccc(NS(C)(=O)=O)c3)cc2Oc2ccc(OC(F)(F)F)cc21 [NCGC00384234]	−54.1
CC(C)(O)c1cccc(-c2ccc3c(c2)C(=O)Nc2cc(OC(F)(F)F)ccc2O3)c1 [NCGC00411876]	−86.3
O=C1Nc2cc(OC(F)(F)F)ccc2Oc2ccc(-c3cccc(CO)c3)cc21 [NCGC00415061]	−71.4
CN(C)CCn1cc(-c2ccc3c(c2)C(=O)Nc2cc(OC(F)(F)F)ccc2O3)cn1 [NCGC00387297]	−115.7
Cc1cn(-c2cc(NC(=O)c3ccc(C)c(Nc4nccc(-c5cccnc5)n4)c3)cc(C(F)(F)F)c2)cn1 [Nilotinib]	−86.5
CN1C(=O)c2ccc(-c3cccc(N(C)S(C)(=O)=O)c3)cc2Oc2ccc(OC(F)(F)F)cc21 [NCGC00384267]	−48.4
O=C(NCCO)c1cccc(-c2ccc3c(c2)C(=O)Nc2cc(OC(F)(F)F)ccc2N3)c1 [NCGC00355556]	−90.9
CC(C)(CO)n1cc(-c2ccc3c(c2)C(=O)Nc2cc(OC(F)(F)F)ccc2O3)cn1 [NCGC00387295]	−87.7

----------
Tested on: Leukemia K562 cell
assay_details: Leukemia K562 cell proliferation/viability assay (CellTiterGlo, 48 hours)
Assay type: cell-based
Design: unit not given here
setup_conditions: K562 cells
Efficacy listing for selected compounds.
reported_metric: Efficacy

molecular_string	reported_metric	test_value
CC(=O)c1csc(-c2ccc3c(c2)C(=O)Nc2cc(OC(F)(F)F)ccc2O3)c1	Efficacy	−92.6
CN1CCN(C(=O)c2cccc(-c3ccc4c(c3)C(=O)Nc3cc(OC(F)(F)F)ccc3O4)c2)CC1	Efficacy	−121.9
O=C1Nc2cc(OC(F)(F)F)ccc2Oc2ccc(-c3cnn(CCN4CCOCC4)c3)cc21	Efficacy	−81.7
NC(=O)c1cccc(-c2ccc3c(c2)C(=O)Nc2cc(OC(F)(F)F)ccc2N3)c1	Efficacy	−95.9
O=C1Nc2cc(OC(F)(F)F)ccc2Oc2ccc(CCB(O)O)cc21	Efficacy	−45.8

----------
Test system: Leukemia K562 cell
assay_details: Leukemia K562 cell proliferation/viability assay (CellTiterGlo, 48 hours)
Format: cell-based
Parameters: unit not given here
setup_conditions: K562 cells
Binary call on Efficacy with cut-off -90: strictly below means 1.0, and equality or higher means 0.0.

compound	cat
CN1C(=O)c2cc(-c3cccc(NS(C)(=O)=O)c3)ccc2Oc2ccc(OC(F)(F)F)cc21	0.0
O=C1Nc2cc(OC(F)(F)F)ccc2Oc2ccc(-c3cnn(C4COC4)c3)cc21	1.0
O=C1Nc2cc(OC(F)(F)F)ccc2Oc2ccc(-c3cnc4ccnn4c3)cc21	0.0
O=C1Nc2cc(OC(F)(F)F)ccc2Oc2ccc(-c3cccc(-c4nn[nH]n4)c3)cc21	0.0
NC(=O)c1cccc(-c2ccc3c(c2)C(=O)Nc2cc(OC(F)(F)F)ccc2O3)c1	0.0
O=C1Nc2cc(OC(F)(F)F)ccc2S(=O)(=O)c2ccc(-c3ccnc(N4CCOCC4)c3)cc21	0.0
N#CCn1cc(-c2ccc3c(c2)C(=O)Nc2cc(OC(F)(F)F)ccc2O3)cn1	0.0
NS(=O)(=O)c1cccc(-c2ccc3c(c2)C(=O)Nc2cc(OC(F)(F)F)ccc2O3)c1	1.0
O=C1Nc2cc(OC(F)(F)F)ccc2Oc2ccc(-c3cccc(C(=O)N4CCOCC4)c3)cc21	1.0
O=C1Nc2cc(OC(F)(F)F)ccc2Oc2ccc(-c3ccc(CN4CCOCC4)s3)cc21	0.0
CS(=O)(=O)Nc1ccc(-c2ccc3c(c2)C(=O)Nc2cc(OC(F)(F)F)ccc2N3)cc1	0.0
COc1ccc(-c2ccc3c(c2)C(=O)Nc2cc(OC(F)(F)F)ccc2O3)cc1O	1.0
CN1CCN(c2cc(-c3ccc4c(c3)C(=O)Nc3cc(OC(F)(F)F)ccc3O4)ccn2)CC1	1.0
CS(=O)(=O)Nc1cccc(-c2ccc3c(c2)Oc2ccc(OC(F)(F)F)cc2NC3=O)c1	1.0
CS(=O)(=O)Nc1cccc(-c2ccc3c(c2)C(=O)Nc2cc(OC(F)(F)F)ccc2N3)c1	0.0
O=C1Nc2cc(OC(F)(F)F)ccc2[S+]([O-])c2ccc(-c3ccnc(N4CCOCC4)c3)cc21 (stereo not drawn)	0.0
COC(=O)c1ccc2c(c1)C(=O)Nc1cc(OC(F)(F)F)ccc1O2	0.0
O=C1Nc2cc(OCC(F)(F)F)ccc2Oc2ccc(-c3ccnc(N4CCOCC4)c3)cc21	0.0
O=C(NCCO)c1cccc(-c2cc(Nc3ccc(OC(F)(F)F)cc3)ncn2)c1	0.0
CC(=O)NCc1ccc(-c2ccc3c(c2)C(=O)Nc2cc(OC(F)(F)F)ccc2O3)s1	0.0
NCCNC(=O)c1cccc(-c2ccc3c(c2)C(=O)Nc2cc(OC(F)(F)F)ccc2N3)c1	0.0

----------
Tested on: Leukemia K562 cell
assay_details: Leukemia K562 cell proliferation/viability assay (CellTiterGlo, 48 hours)
Type: cell-based
Design: unit not given here
setup_conditions: K562 cells

molecular_string	target_or_test_system	Efficacy
O=C1Nc2cc(C(F)(F)F)ccc2Oc2ccc(-c3ccnc(N4CCOCC4)c3)cc21	Leukemia K562 cell	−87.5
O=C1Nc2cc(OC(F)(F)F)ccc2Nc2ccc(-c3cccc(C(=O)N4CCOCC4)c3)cc21	Leukemia K562 cell	−89.5
CS(=O)(=O)Nc1cccc(-c2ccc3c(c2)CNc2cc(OC(F)(F)F)ccc2O3)c1	Leukemia K562 cell	−90.7
